Test system: biotinyl-Ile-oxazolone
Test: self-aminoacylation, catalytic enhancement (BIO) (fold over background); higher = more active; k-Seq, kA / k0A0; sequences stand for … in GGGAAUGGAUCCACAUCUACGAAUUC…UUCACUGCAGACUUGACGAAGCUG
Variants at the floor of the assay were thinned out.
quantity kind: self-aminoacylation

| seq string | quantity kind | readout number |
| --- | --- | --- |
| AUUCACCUAGGUAAUCGGCUG [Fam2.2 aminoacylation ribozyme variant] | self-aminoacylation | 0.944 |
| AGUACCCUGGUCAUCGAGGGA [Fam2.1 aminoacylation ribozyme variant] | self-aminoacylation | 1.43 |
| AUUACCCUGGUGAUCGCGUGA [Fam2.1 aminoacylation ribozyme variant] | self-aminoacylation | 3.45 |
| AAGUUUGCUAAUAAUCGCAAG [Fam3.1 aminoacylation ribozyme variant] | self-aminoacylation | 0.735 |
| AUUCACCUUCGUCAUCGGGUG [Fam2.2 aminoacylation ribozyme variant] | self-aminoacylation | 2.12 |
| CUACUUCAAGCAAUCGGUAUG [Fam1A.1 aminoacylation ribozyme variant] | self-aminoacylation | 0.94 |
| AUUCACCUAGGUCAUAGAGUG [Fam2.2 aminoacylation ribozyme variant] | self-aminoacylation | 2.23 |
| UUUCACCUAGGUCAUCGGGUU [Fam2.2 aminoacylation ribozyme variant] | self-aminoacylation | 6.15 |
| AUUCACCUAGGUCAUCAGGUG [Fam2.2 aminoacylation ribozyme variant] | self-aminoacylation | 1.19 |

* * *

Entries and their measured self-aminoacylation follow.
Tested on: biotinyl-Trp-oxazolone
Experiment: self-aminoacylation, catalytic enhancement (BWO) (fold over background); higher = more active; k-Seq, kA / k0A0; sequences stand for … in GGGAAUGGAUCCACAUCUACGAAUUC…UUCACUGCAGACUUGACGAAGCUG
Variants at the floor of the assay were thinned out.

| seq string | self-aminoacylation |
| --- | --- |
| AUUCACCUAGGCCAUCGGUUG [Fam2.2 aminoacylation ribozyme variant] | 0.695 |
| UUUCACCUAGCUCAUCGGGUG [Fam2.2 aminoacylation ribozyme variant] | 2.5 |
| AAAUUUGCAAAUAGUCGCAAG [Fam3.1 aminoacylation ribozyme variant] | 1.82 |
| AUCACCCUUGUCAUCGAGUGA [Fam2.1 aminoacylation ribozyme variant] | 10.7 |
| CUGCUUCAAACAAUCGGUGUG [Fam1A.1 aminoacylation ribozyme variant] | 49.6 |
| ACGUUUGCUUAUAGUCGCAAG [Fam3.1 aminoacylation ribozyme variant] | 1.75 |
| AUUCACCUAGGUCAUUGAGUG [Fam2.2 aminoacylation ribozyme variant] | 3.89 |
| CCUCACUUCAAGCAAUCGGCC [Fam1B.1 aminoacylation ribozyme variant] | 5.38 |
| AUUCACAUACGUCAUCGGGUG [Fam2.2 aminoacylation ribozyme variant] | 6.74 |
| CCACCCUUCAAGCACUCGGUC [Fam1B.1 aminoacylation ribozyme variant] | 1.46 |
| AUUACCCUGGUCAUGGUGUGA [Fam2.1 aminoacylation ribozyme variant] | 2.24 |
| AUGCACCUAGGUCAUCGUGUG [Fam2.2 aminoacylation ribozyme variant] | 0.926 |
| AUUAGCCUAGGUCAUCGGGUG [Fam2.2 aminoacylation ribozyme variant] | 23.3 |
| CCACGUCAAACAAUCGGUCUG [Fam1A.1 aminoacylation ribozyme variant] | 2.31 |
| AAGUAUGCUCAUAGUCGCAAG [Fam3.1 aminoacylation ribozyme variant] | 2.78 |
| AUUCACCGAGGUCAUCUGGUG [Fam2.2 aminoacylation ribozyme variant] | 3.61 |
| CCACACUGCAAGCAAUAGGUC [Fam1B.1 aminoacylation ribozyme variant] | 0.601 |
| CUACUUCAAACAAUCCGGCUG [Fam1A.1 aminoacylation ribozyme variant] | 0.952 |
